B1: NCK2 (parent)
chain: YTGPSSSGRFAGREWYYGNVTRHQ

Variants of: B1
Assay: protein stability index of a GFP-peptide fusion (GPS, HEK-293T) (PSI 1-6); higher = more stable;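 note: lentivirally expressed fusions sorted by FACS into six bins by GFP to DsRed ratio, PSI derived from sequencing read proportions per bin multiplied by bin number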
Conditions: c terminus: a fixed tail appended
Please provide measured protein stability index for the entries that follow.

Request: Find the recorded protein stability index belonging to YTGPSSSGRFAVREWYYGNVTRHQ and report it.
Response: 1.84

Request: Please look up its protein stability index: YTGPSSSGRFAGRWWYYGNVTRHQ
Response: 1.92

Request: Name the recorded protein stability index for YTGPSSSGRFAGREWYYINVTRHQ .
Response: 1.74

Request: Recorded protein stability index of YTGPSSSGRFAGREWYYGNVTRHI , please.
Response: 2.01

Request: Recorded protein stability index of PTGPSSSGRFAGREWYYGNVTRHQ , please.
Response: 3.8

Request: // lookup protein stability index for YTGPSSSGRFAGREWYYGNVTRHV
Response: 2.17

Request: State the recorded protein stability index for this entry: YTGPSSSGRFAGREWYYGNVLRHQ
Response: 2.34

Request: // protein stability index lookup, key: YTGPSSSGRFAGREWYYGQVTRHQ
Response: 3.23

Request: Need protein stability index of HTGPSSSGRFAGREWYYGNVTRHQ , thanks.
Response: 2.48

Request: Given the variant YTGPSSSGRFAGREWYYGNVTFHQ , what is its reported protein stability index?
Response: 2.65

Request: Requested field: protein stability index. Item: YTGPSSSGRFAGREWYYGNVTAHQ
Response: 2

Request: Recorded protein stability index of YTGPSISGRFAGREWYYGNVTRHQ , please.
Response: 1.96

Request: Which protein stability index is reported for this variant? YTGPSSSGRFAGIEWYYGNVTRHQ
Response: 2.64

Request: Find the recorded protein stability index belonging to YTGPSSSGRFAGREWYYGNVTRPQ and report it.
Response: 1.23
